Recorded TGI, one value per entry.
Test system: A549 NSCLC
Assay: NCI tumour cell line growth inhibition, 48 h

Asked: What does the record list as TGI for O=[N+]([O-])c1cccc(Nc2nc(Cl)nc(Cl)n2)c1 ?
Given back: > 100 µM

Asked: Now give it for O=CNc1ccccc1OCCOc1ccccc1NC=O too.
Given back: > 100 µM

We now examine a further compound.
Asked: Quick check: TGI of CN(C)CCN1CCc2c([nH]c3ccccc23)C1c1cccnc1 (stereo not given) ?
Given back: > 100 µM

====

System: HCT-116 colon
Test: NCI tumour cell line growth inhibition, 48 h
Measured TGI by item

Asked: Dear colleague, I am looking for the recorded TGI of the following compound: O=[N+]1[C@H](c2ccccc2)[C@H](c2ccccc2)N1[O-]
Given back: 30.6 µM

Asked: For CCOC(=O)C1=C(OC(OCC)C(CC)[Se]c2ccccc2)CCC1 (centres undefined) then?
Given back: > 100 µM

Asked: Moving on to the next compound: COc1cc(-c2nn(-c3cccc(NC(=O)CCNc4ccc(N5CCOCC5)cc4)c3)cc2-c2ccncc2)ccc1Cl
Given back: > 100 µM

New cases:
Asked: Could you tell me which TGI is on file for COC(=O)c1c(O)ccc2c1c1cc3ccccc3c(O)c1n2CCc1ccc(OC)c(OC)c1 ?
Given back: > 100 µM

Asked: Proceed to Cc1cc(C)nc(NS(=O)(=O)c2ccc(Nc3c4ccccc4nc4c(C(=O)NCCN(C)C)cccc34)cc2)n1
Given back: 15.5 µM

====

Entries and their TGI values follow.
Tested on: HCC-2998 colon
Assay: NCI tumour cell line growth inhibition, 48 h

The following compounds have reported results that may help.
Asked: I have this compound here, Cc1ccc(OC(=O)N2C/C(=C\c3ccccc3)C(=O)/C(=C/c3ccccc3)C2)cc1 , and I need its recorded TGI.
Given back: > 37 µM

Asked: Record: O=[N+]([O-])c1cccc2nccc(NCCN3CCOCC3)c12
Given back: 26.4 µM

Query compound follows.
Asked: What TGI value was documented for this compound, O=CN1N=C(c2cccc(Nc3ccnc4cc(Cl)ccc34)c2)CC1c1ccc(Cl)cc1 (stereo not drawn) ?
Given back: > 100 µM

====

Test system: LOX IMVI melanoma
Test: NCI tumour cell line growth inhibition, 48 h
MEASUREMENT LABEL: TGI

Below are worked cases with known answers.
Asked: Which TGI value belongs to CN1CC[C@H](c2c(O)cc(O)c3c(=O)cc(-c4ccccc4Cl)oc23)[C@H](O)C1 ?
Given back: > 10 µM

Asked: Similarly, CC1=CCC(C(C)(C)NC(=O)c2ccccc2)C/C1=N/O (configuration not stated) ?
Given back: > 100 µM

Asked: Then CCc1ccc2c(c1)N(CCO)C1=C(C(=O)OC1)C2c1cc(OC)c(OC)c(OC)c1 (configuration not stated) ?
Given back: > 50 µM

Asked: Same again, this time with C1=CC2CCC1CN2CCC1CNc2ccccc21 (configuration not stated)
Given back: > 100 µM

Asked: Same again, this time with COc1cc([C@@H]2c3cc4c(cc3[C@@H](Nc3ccc(Cl)cc3C(=O)c3ccccc3)[C@H]3COC(=O)[C@H]23)OCO4)cc(OC)c1OC
Given back: > 100 µM

---
Asked: Any idea what its TGI is? The compound is Cc1[nH]c(-c2ccccc2)c2nc(N(C)C)oc(=O)c12
Given back: > 100 µM

Asked: Repeat with O=C1CCC(=O)N1Sc1ccccc1
Given back: > 100 µM
